Data credit: patent US20110245284A1

# Tested on: Fusarium proliferatum
# Protocol Description: Production of fumonisin FB1 by Fusarium proliferatum (microtitre plates; FB1 by HPLC-MS/MS, growth by OD620)
# Type: cell-based
# Conditions Used: Fusarium proliferatum, 144 h, read-out: pI50 Fum
Listed next: entries and their corresponding pIC50.
In plain terms, pIC50 is the concentration in mol/L turned into minus its base-10 logarithm.

Examples from the recorded data:
CCC(SC)c1cccc(Nc2ncc(C(F)(F)F)c(NC3CC3)n2)c1 (stereo not shown) :: 4.80
COCc1cccc(Nc2ncc(C(F)(F)F)c(NC3CCC3)n2)c1 :: 5.70
CC[S+]([O-])c1cccc(Nc2ncc(Cl)c(NC3CCC3)n2)c1 (stereo not shown) :: 5.40
CCSC(C)c1cccc(Nc2ncc(Br)c(NC3CCC3)n2)c1 (stereo not shown) :: 5.00
COC(C)(C)Cc1cccc(Nc2ncc(Cl)c(NC3CC3)n2)c1 :: 6.20

Kindly indicate its recorded pIC50. Item: `CCS(=O)(=O)c1cccc(Nc2ncc(Cl)c(NC3CCC3)n2)c1`
5.70

Kindly indicate its recorded pIC50. Item: COC(C)c1cccc(Nc2ncc(Br)c(NC3CCC3)n2)c1 (stereo not shown)
6.10

Kindly indicate its recorded pIC50. Item: COCC(C)Oc1ccc(Nc2ncc(Br)c(NC3CC3)n2)cc1 (stereo not shown)
5.90

Kindly indicate its recorded pIC50. Item: `COCCc1cccc(Nc2ncc(Cl)c(NC3CC3)n2)c1`
6.20

Kindly indicate its recorded pIC50. Item: `COC(C)(C)c1cccc(Nc2ncc(Cl)c(NC3CC3)n2)c1`
6.30

###

# Protocol Description: logP by LC-MS on reversed-phase columns (C 18), method [b], acidic range pH 2.7
# Format: physicochemical
# Conditions Used: pH 2.7
# Procedure: The logP values were determined in accordance with EEC Directive 79/831 Annex V.A8 by HPLC (High Performance Liquid Chromatography) on reversed-phase columns (C 18), using the methods below: [b] The LC-MS determination in the acidic range is carried out at pH 2.7 using the mobile phases 0.1% aqueous formic acid and acetonitrile (contains 0.1% formic acid), linear gradient from 10% acetonitrile to 95% acetonitrile.
Listed next: entries and their corresponding log p.

Examples from the recorded data:
CCSC(C)c1cccc(Nc2ncc(C(F)(F)F)c(NC3CCC3)n2)c1 (centres unmarked) :: 4.75[b]
COC(c1cccc(Nc2ncc(Cl)c(NC3CCC3)n2)c1)C(F)(F)F (centres unmarked) :: 2.99[b]
COCc1cccc(Nc2ncc(Cl)c(N3CCCCCC3)n2)c1 :: 2.88[b]
CCCC(C)SC(C)c1cccc(Nc2ncc(C(F)(F)F)c(NC3CC3)n2)c1 (centres unmarked) :: 5.53[b]

Kindly indicate its recorded log p. Item: CCCC(C)SC(C)c1cccc(Nc2ncc(Cl)c(NC3CC3)n2)c1 (centres unmarked)
4.24[b]

###

# Protocol Description: logP by LC-MS on reversed-phase columns (C 18), method [c], neutral range pH 7.8
# Type: physicochemical
# Conditions Used: pH 7.8
Classify by measured chromatographic logP: Fulfilled if it is equal to or exceeds 4, Not fulfilled if it is smaller.

CCSc1cccc(Nc2ncc(C(F)(F)F)c(NC3CC3)n2)c1 :: Fulfilled

Is chromatographic logP at least 4? Consider `CCN(C)c1nc(Nc2cccc(COC)c2)ncc1Cl`
Not fulfilled

Is chromatographic logP at least 4? Consider CCC(C)[S+]([O-])C(C)c1cccc(Nc2ncc(Cl)c(NC3CC3)n2)c1 (stereo not drawn)
Not fulfilled
